// data source = ChEMBL document CHEMBL1158993

Record form. Attribute: inhibition at 10 µg/mL. Fill in for each entry.
test: Antitumor promotor activity against mouse C3H10T1/2 cells assessed as inhibition of TPA-enhanced [3H]choline chloride incorporation in to phospholipids at 10 ug/ml after 1 hr; assay type: functional; settings: C3H 10T1/2

Value of measured inhibition at 10 µg/mL for the entry COc1c(C)c(O)c(C(C)=O)c(O)c1Cc1c(O)c(C(C)=O)c(O)c2c1OC(C)(C)C(O)C2 (configuration not stated) [ISOMALLOTOCHROMANOL] : 95.5%

Value of measured inhibition at 10 µg/mL for the entry C=C(C)C(O)Cc1c(O)c(Cc2c(O)c(C(C)=O)c(O)c(C)c2OC)c(O)c(C(=O)CCC)c1O (configuration not stated) [MALLOTOLERIN] : 100%

Value of measured inhibition at 10 µg/mL for the entry COc1c(C)c(O)c(C(C)=O)c(O)c1Cc1c(O)c2c(c(C(C)=O)c1O)OC(C)(C)CC2 [MALLOTOCHROMAN] : 68.7%

Value of measured inhibition at 10 µg/mL for the entry COc1c(C)c(O)c(C(C)=O)c(O)c1Cc1c(O)c2c(c(C(C)=O)c1O)OC(C)(C)C=C2 [MALLOTOCHROMENE] : 66.7%

Value of measured inhibition at 10 µg/mL for the entry COc1c(C)c(O)c(C(C)=O)c(O)c1Cc1c(O)c(CC=C(C)C)c(O)c(C(C)=O)c1O [MALLOTOJAPONIN] : 100%

Value of measured inhibition at 10 µg/mL for the entry COc1c(C)c(O)c(C(C)=O)c(O)c1Cc1c(O)c(C(C)=O)c(O)c2c1OC(C)(C)C=C2 [ISOMALLOTOCHROMENE] : 100%

Value of measured inhibition at 10 µg/mL for the entry COc1c(C)c(O)c(C(C)=O)c(O)c1Cc1c(O)c2c(c(C(C)=O)c1O)OC(C)(C)C(O)C2 (configuration not stated) [MALLOTOCHROMANOL] : 29.2%
